# target under test: GPAT3_C306 (Homo sapiens, UniProt Q53EU6)
# Construct: endogenous in cells; host or cells: 22Rv1
# Sequence (Q53EU6 whole entry): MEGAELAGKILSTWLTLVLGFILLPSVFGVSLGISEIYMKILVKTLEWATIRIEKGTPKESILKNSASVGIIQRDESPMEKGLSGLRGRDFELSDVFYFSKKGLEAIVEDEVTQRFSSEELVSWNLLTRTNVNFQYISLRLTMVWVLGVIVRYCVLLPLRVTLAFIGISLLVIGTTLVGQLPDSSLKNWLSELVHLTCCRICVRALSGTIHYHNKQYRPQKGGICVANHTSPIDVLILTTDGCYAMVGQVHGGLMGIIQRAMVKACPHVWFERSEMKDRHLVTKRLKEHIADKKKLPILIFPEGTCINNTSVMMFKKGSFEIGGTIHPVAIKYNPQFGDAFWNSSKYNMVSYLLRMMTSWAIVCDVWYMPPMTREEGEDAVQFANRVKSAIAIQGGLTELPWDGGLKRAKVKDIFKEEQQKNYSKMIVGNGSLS
# experiment summary: IA-DTB cysteine engagement
# Type: binding
# condition label: 22Rv1 cells, 20 μM probe, 1 h, relative to DMSO

molecule: C=CC(=O)N1C[C@H](c2ccc(Br)cc2)[C@H]1C(=O)Nc1cccc2cccnc12 [MY-3A]
% engagement GPAT3_C306 (%): 57
--
molecule: C=CC(=O)N1C[C@H](c2ccc(Br)cc2)[C@@H]1C(=O)Nc1cccc2cccnc12
% engagement GPAT3_C306 (%): 81.5
--
molecule: C=CC(=O)N1C[C@@H](c2ccc(Br)cc2)[C@H]1C(=O)Nc1cccc2cccnc12
% engagement GPAT3_C306 (%): 75.75
--
molecule: C=CC(=O)N1C[C@H](c2ccc(Br)cc2)[C@H]1C(=O)Nc1cccc2cccnc12 [MY-3B]
% engagement GPAT3_C306 (%): 100
